- Tested on: K4 kissing-loop RNA reporter;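 also: bound reporter read as fluorescence of individual clusters on recovered sequencing chips by microscopy, with normalized cluster intensities fitted with a binding model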
- assay-overview: apparent KD of K4 kissing-loop reporter; higher = weaker reporter binding
- protocol-conditions: Eterna round: R107; input ligand: none
Reported apparent KD of K4 kissing-loop reporter values follow for various sequences
State the answer as a number, implicitly in nM.

>  <sequence>
UAACUGCAGUGAUGUUGCAGAUGUCCUGACUAGGAUAUCAGGAAACUGAGAAGGAGUGCCUUCUAAACAUCACAGAAGGUGGACA [KL-SSFMN-A28]

>  <apparent KD of K4 kissing-loop reporter / nM>
415

$$$$

Given the sequence GGUCGAGUGAUGUUCGAUGUAGUGCAUUCAGAGGAUAUAGGAUUGGCUAGAAGGCUGAAACCUUCUUCGAGUGAUGUUCGAGGAU [Same State FMN A GF5] , write its reported apparent KD of K4 kissing-loop reporter.
112

State, in one line, measured apparent KD of K4 kissing-loop reporter of AGGAUCACGUCAGUGAUGUUGACAAGAGAUACCAGAGACGAAAGUCUCCCUUGGCAGCUCAUUGUGAUCCGUGACAAAGGUCACA [Omei KL hio A SS C v2]
413

The reported numbers originate from the supplement of paper PMC9170038.
